# credit: ChEMBL document CHEMBL5537132

tested on: Mycobacterium tuberculosis; assay: Antitubercular activity against Mycobacterium tuberculosis H37Rv assessed as minimum inhibitory concentration incubated for 5 days by resazurin staining based fluorescent plate reader analysis; format: functional; conditions: 120 h, time 5 day
endpointName: MIC90 (µg/mL)
Answer with a number only, understood to be in µg/mL.

Here is how some compounds turned out for MIC90.
                         compoundsmiles  measuredresult
0  CCCCCCCCCCS(=O)(=O)Cc1nc2ccccc2oc1=O            5.85
1      NC(=O)CS(=O)(=O)CCCCCCCCc1ccccc1              16

// NC(=O)CS(=O)(=O)CCCCCCCCCCc1ccccc1 : MIC90 value = 13

---

tested on: Mycobacterium tuberculosis; assay: Antitubercular activity against Mycobacterium tuberculosis H37Rv assessed as minimum inhibitory concentration incubated for 5 days by resazurin staining based fluorescent plate reader analysis; type: functional; conditions: 120 h, time 5 day
In this section we review reported MIC90 values for a set of compounds.
Answer with a number only, understood to be in µg/mL.

In [3]: df
Out[3]:
                compoundsmiles  measuredresult
0  CCCCCCCCCCCS(=O)(=O)CC(N)=O            1.39

Please examine the following record next.
// CCCCCCCCCCS(=O)(=O)CC(N)=O : MIC90 value = 1.32

---

system: Mycobacterium tuberculosis; test: Antitubercular activity against Mycobacterium tuberculosis H37Rv assessed as minimum inhibitory concentration incubated for 5 days by resazurin staining based fluorescent plate reader analysis; assay type: functional; details: 120 h, time 5 day
In this section we review reported MIC90 values for a set of molecules.

In [3]: df
Out[3]:
                             compoundsmiles  measuredresult
0  CCCCCCCCCCS(=O)(=O)CC(=O)NC[C@H]1O[C@H](OCc2ccccc2)[C@@H](O)[C@@H](O)[C@@H]1O      > 50 µg/mL
1  CCCCCCCCCCS(=O)(=O)Cc1cn(CCCn2cnc3ccccc32)nn1      > 50 µg/mL

Please examine the following record next.
// NC(=O)CS(=O)(=O)Cc1ccccc1 : MIC90 value = > 50 µg/mL

---

test system: Mycobacterium tuberculosis; assay: Antitubercular activity against Mycobacterium tuberculosis H37Rv assessed as minimum inhibitory concentration incubated for 5 days by resazurin staining based fluorescent plate reader analysis; assay type: functional; settings: 120 h, time 5 day
endpointName: MIC90

Here is how some compounds turned out for MIC90.
In [3]: df
Out[3]:
                             compoundsmiles               targetofassay  measuredresult
0  CCCCCCCCCCS(=O)(=O)Cc1cn(CCCCn2c(=O)oc3ccccc32)nn1  Mycobacterium tuberculosis      > 50 µg/mL
1  CCCCCCCCCCS(=O)(=O)Cc1cn(C[C@H]2O[C@H](OCc3ccccc3)[C@@H](O)[C@@H](O)[C@@H]2O)nn1  Mycobacterium tuberculosis      > 50 µg/mL

// CCCCCCCCCCS(=O)(=O)Cc1cn(C[C@H]2O[C@@H](n3cnc4c(N)ncnc43)[C@H](O)[C@@H]2O)nn1 : MIC90 value = > 50 µg/mL
